Measured Kd values are reported for all entries that follow.
# Tested System: TDP-43 RRM1 (with 15-aa C-terminal linker) (UniProt Q13148 102-191)
# Sequence (Q13148 102-191): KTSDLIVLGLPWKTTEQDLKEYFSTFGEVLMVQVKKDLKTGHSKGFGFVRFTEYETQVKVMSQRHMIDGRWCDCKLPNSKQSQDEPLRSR
# Test Name: BLI; BLI (Octet RED), 10 mM potassium phosphate pH 7.2, 150 mM KCl, 0.05% Tween, 25 C; RNA on streptavidin sensors, protein 1 nM-15 uM
# Test Context: protein: recombinant; tags: 6xHis-SUMO removed by TEV; single strand
Readout Label: Kd (µM)

[[record]]
binder = "AUUCAUUCACAC (ssRNA) [NegAUG12]"
number = 2.55

[[record]]
binder = "GUGUGAAUGAAU (ssRNA) [AUG12]"
number = 0.48

